Reference for the values: patent US4361703A

protocol.notes: Acute oral toxicity in rats
Type: in vivo
measurement.setup: rat, in vivo, po, 2000 mg/kg, Percentage Mortality
property.label: mortality at 72 h (%)
Dear colleague, please return just the value in %, with no unit written.

# mortality at 72 h lookup, item CSCCC(NC(C)=O)C(=O)Oc1ccc(NC(C)=O)cc1 (racemic)
0

====

protocol.notes: Acute oral toxicity in rats
Type: in vivo
measurement.setup: rat, in vivo, po, 8000 mg/kg, Percentage Mortality
property.label: mortality at 48 h (%)
Dear colleague, please return just the value in %, with no unit written.

# mortality at 48 h lookup, item CSCCC(NC(C)=O)C(=O)Oc1ccc(NC(C)=O)cc1 (racemic)
0
